- SYSTEM UNDER TEST: Metallo-beta-lactamase type 2 (Aeromonas hydrophila)
- MEASUREMENT NOTES: Inhibition of metallo-beta-lactamases CphA assessed as residual activity at 100 uM
# Activity per record follows
Output spec: scalar in %, unitless text.

CNC(=O)c1cc(O)cc(C(=O)NO)c1; 92
O=C(NO)c1cc(O)cc(C(=O)NCc2ccccc2)c1; 81
O=C(NO)c1cc(O)cc(C(=O)Nc2ccccc2)c1; 90
O=C(NO)c1cc(O)cc(C(=O)c2ccc(O)cc2)c1; 84
CCN(CC)C(=O)c1cc(O)cc(C(=O)NO)c1; 90

Checklist item: Activity tested on Metallo-beta-lactamase type 2 (Aeromonas hydrophila), entry "O=C(O)c1cc(O)cc(C(=O)NO)c1" , value?
79

Input "O=C(O)c1cc(O)cc(C(=O)c2ccc(O)cc2)c1"
83

Quick one: "O=C(NO)c1cc(O)cc(C(=O)N2CCCC2)c1"
86

* * *

Below, each of the compounds is paired with its reported Ki value.
- MEASUREMENT NOTES: Inhibition of metallo-beta-lactamases FEZ1
- Parameters: species or system Fluoribacter gormanii
Write the answer as a number in µM, unit excluded.

Which Ki reading was recorded for the compound "O=C(NO)c1cccc(O)c1" ?
17.9

Lookup "O=C(NO)c1cc(O)cc(O)c1"
13.3

* * *

- SYSTEM UNDER TEST: Metallo-beta-lactamase type 2 (Pseudomonas aeruginosa)
- MEASUREMENT NOTES: Inhibition of metallo-beta-lactamases IMP1 assessed as residual activity at 100 uM
QUANTITY: Activity (%)
Express it in %; write the number only.

Solved cases below.
O=C(NO)c1cc(O)cc(C(=O)N2CCCC2)c1; 85
CNC(=O)c1cc(O)cc(C(=O)NO)c1; 93
O=C(NO)c1cc(O)cc(C(=O)c2ccc(O)cc2)c1; 83
O=C(NO)c1cc(O)cc(C(=O)Nc2ccccc2)c1; 92

Returns the measured Activity for the input compound. Input: "O=C(O)c1cc(O)cc(C(=O)NO)c1"
67

Next compound: "O=C(NO)c1cc(O)cc(C(=O)NCc2ccccc2)c1"
81

For "O=C(O)c1cc(O)cc(C(=O)c2ccc(O)cc2)c1" then?
100

"CCN(CC)C(=O)c1cc(O)cc(C(=O)NO)c1" ?
85

* * *

A collection of compounds and their measured Activity
- System: Fluoribacter gormanii
- MEASUREMENT NOTES: Inhibition of metallo-beta-lactamases FEZ1 assessed as residual activity at 100 uM
Output spec: scalar in %, unitless text.

In the examples that follow, each entry is paired with its recorded Activity.
CCN(CC)C(=O)c1cc(O)cc(C(=O)NO)c1; 66
O=C(NO)c1cc(O)cc(C(=O)c2ccc(O)cc2)c1; 15
O=C(NO)c1cc(O)cc(C(=O)NCc2ccccc2)c1; 46
O=C(NO)c1cc(O)cc(C(=O)Nc2ccccc2)c1; 42
O=C(O)c1cc(O)cc(C(=O)c2ccc(O)cc2)c1; 67

// lookup Activity for "O=C(O)c1cc(O)cc(C(=O)NO)c1"
92

Request: "CNC(=O)c1cc(O)cc(C(=O)NO)c1"
47

And the next one, "O=C(NO)c1cc(O)cc(C(=O)N2CCCC2)c1" ?
64

* * *

Activity values for the compounds below.
- MEASUREMENT NOTES: Inhibition of metallo-beta-lactamases L1 assessed as residual activity at 100 uM
# do not omit the unit; it follows the number

CNC(=O)c1cc(O)cc(C(=O)NO)c1; 96%
O=C(NO)c1cc(O)cc(C(=O)c2ccc(O)cc2)c1; 102%
O=C(O)c1cc(O)cc(C(=O)c2ccc(O)cc2)c1; 107%
O=C(NO)c1cc(O)cc(C(=O)Nc2ccccc2)c1; 103%
O=C(NO)c1cc(O)cc(C(=O)NCc2ccccc2)c1; 95%
CCN(CC)C(=O)c1cc(O)cc(C(=O)NO)c1; 93%
O=C(O)c1cc(O)cc(C(=O)NO)c1; 97%

Attention now turns to another entry.
Endpoint output: Activity of "O=C(NO)c1cc(O)cc(C(=O)N2CCCC2)c1" . Value?
92%

* * *

- Test system: Bacillus cereus
- MEASUREMENT NOTES: Inhibition of metallo-beta-lactamases Bc2 assessed as residual activity at 100 uM
Reported Activity is given for each of the following molecules.
Your answer is read as %, so omit the unit and give the number.

# annotated cases, reported Activity shown
O=C(NO)c1cc(O)cc(C(=O)N2CCCC2)c1; 100
O=C(O)c1cc(O)cc(C(=O)NO)c1; 93
O=C(O)c1cc(O)cc(C(=O)c2ccc(O)cc2)c1; 86
O=C(NO)c1cc(O)cc(C(=O)c2ccc(O)cc2)c1; 91

Could you now look at the following molecule, please?
Form field: Activity recorded for "O=C(NO)c1cc(O)cc(C(=O)NCc2ccccc2)c1" with Bacillus cereus (enter value)
103

* * *

- System: Fluoribacter gormanii
- MEASUREMENT NOTES: Inhibition of metallo-beta-lactamases FEZ1
- Set-up: concentration or dose not given beside the values
- TEST CONTEXT: concentration not given here
QUANTITY: inhibition

Look over these answered cases.
O=C(NO)c1cc(O)cc(C(=O)Nc2ccccc2)c1; 58%
O=C(NO)c1cc(O)cc(C(=O)N2CCCC2)c1; 36%
O=C(NO)c1ccccc1O; 45%
CNC(=O)c1cc(O)cc(C(=O)NO)c1; 53%
O=C(NO)c1cccc(O)c1; 64%
O=C(NO)c1cc(O)cc(C(=O)NCc2ccccc2)c1; 54%

State the recorded inhibition for this entry: "O=C(O)c1cccc(C(=O)NO)c1"
< 10%

Follow-up item: "CCN(CC)C(=O)c1cc(O)cc(C(=O)NO)c1"
34%

Same again, this time with "O=C(O)CCC(=O)NO"
< 10%

Can you check "O=C(NO)c1ccc(O)cc1" next?
53%

Also check "O=C(NO)c1ccccc1"
55%

* * *

- Test system: Bacillus cereus
- MEASUREMENT NOTES: Inhibition of metallo-beta-lactamases Bc2 assessed as residual activity at 100 uM
QUANTITY: Activity (%)
Numeric only. Scale: %

O=C(NO)c1cc(O)cc(C(=O)Nc2ccccc2)c1; 82

Quick one: Activity of "CCN(CC)C(=O)c1cc(O)cc(C(=O)NO)c1" ?
101

// same read-out, input: "CNC(=O)c1cc(O)cc(C(=O)NO)c1"
103
